Source listed as patent US11878970B2.

target.or.test.system: PI3K-α (PIK3CA) in MDA-MB-453 cells (Homo sapiens, UniProt P42336)
Sequence (P27986 2-724): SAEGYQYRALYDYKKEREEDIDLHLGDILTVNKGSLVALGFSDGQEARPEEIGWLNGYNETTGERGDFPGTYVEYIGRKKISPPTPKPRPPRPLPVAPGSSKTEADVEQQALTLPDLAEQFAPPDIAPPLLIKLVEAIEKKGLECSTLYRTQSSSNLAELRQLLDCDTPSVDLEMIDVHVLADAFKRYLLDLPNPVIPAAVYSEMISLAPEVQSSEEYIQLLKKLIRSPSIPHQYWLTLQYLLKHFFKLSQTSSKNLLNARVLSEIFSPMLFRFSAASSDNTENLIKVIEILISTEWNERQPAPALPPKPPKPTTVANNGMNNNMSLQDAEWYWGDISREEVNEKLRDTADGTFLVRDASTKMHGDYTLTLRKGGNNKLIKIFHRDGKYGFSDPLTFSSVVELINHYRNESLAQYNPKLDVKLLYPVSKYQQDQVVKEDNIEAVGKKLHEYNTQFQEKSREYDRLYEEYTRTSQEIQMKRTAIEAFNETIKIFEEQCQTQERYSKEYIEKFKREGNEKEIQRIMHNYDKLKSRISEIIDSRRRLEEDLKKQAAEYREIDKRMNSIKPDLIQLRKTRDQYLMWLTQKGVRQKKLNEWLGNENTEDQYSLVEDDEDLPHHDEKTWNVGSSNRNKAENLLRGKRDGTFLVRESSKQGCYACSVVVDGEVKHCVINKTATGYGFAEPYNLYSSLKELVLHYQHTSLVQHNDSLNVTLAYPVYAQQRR
Sequence (P42336 whole entry): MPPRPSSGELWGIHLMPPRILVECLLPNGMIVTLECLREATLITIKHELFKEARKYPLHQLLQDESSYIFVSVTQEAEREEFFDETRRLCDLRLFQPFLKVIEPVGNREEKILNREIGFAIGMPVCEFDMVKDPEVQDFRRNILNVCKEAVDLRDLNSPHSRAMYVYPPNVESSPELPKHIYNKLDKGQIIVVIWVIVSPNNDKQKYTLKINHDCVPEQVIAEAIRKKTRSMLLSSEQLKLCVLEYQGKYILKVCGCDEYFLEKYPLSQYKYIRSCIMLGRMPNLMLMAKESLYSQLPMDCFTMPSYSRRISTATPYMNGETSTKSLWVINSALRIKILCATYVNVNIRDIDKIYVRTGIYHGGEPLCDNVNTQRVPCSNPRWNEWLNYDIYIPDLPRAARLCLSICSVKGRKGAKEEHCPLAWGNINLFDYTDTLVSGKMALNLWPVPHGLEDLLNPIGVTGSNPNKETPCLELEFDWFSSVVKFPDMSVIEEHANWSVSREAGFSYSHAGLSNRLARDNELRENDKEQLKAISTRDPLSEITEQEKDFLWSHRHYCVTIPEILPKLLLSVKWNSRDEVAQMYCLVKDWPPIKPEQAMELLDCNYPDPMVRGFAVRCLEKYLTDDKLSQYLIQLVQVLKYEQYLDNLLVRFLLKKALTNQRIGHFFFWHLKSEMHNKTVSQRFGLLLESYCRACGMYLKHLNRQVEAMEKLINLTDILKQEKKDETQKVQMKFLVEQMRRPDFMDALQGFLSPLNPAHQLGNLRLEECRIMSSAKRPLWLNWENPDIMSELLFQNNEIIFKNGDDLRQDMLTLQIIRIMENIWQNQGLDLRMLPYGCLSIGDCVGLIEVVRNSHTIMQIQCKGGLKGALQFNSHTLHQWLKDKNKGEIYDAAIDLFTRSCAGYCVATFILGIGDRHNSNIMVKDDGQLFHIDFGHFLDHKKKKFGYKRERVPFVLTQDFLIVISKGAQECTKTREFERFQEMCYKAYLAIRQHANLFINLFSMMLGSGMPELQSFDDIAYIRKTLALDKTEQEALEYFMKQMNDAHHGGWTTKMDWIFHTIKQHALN
assay.protocol: PI3K-alpha kinase (PIK3CA) in vitro cell based assay, MDA-MB-453 cells, SureFire Ultra AlphaLisa
condition: read-out: PI3K-α (PIK3CA) in vitro cell based assay IC50
pIC50: −log10 of the molar value.
Measured pIC50 by item

Below: 2 molecules and their reported pIC50.
molecule | pIC50
Cc1cc(C(C)Nc2ccccc2C(=O)O)c2oc(-c3ccn4nncc4c3)cc(=O)c2c1 (single isomer, unassigned) [Example 58] | 6.30 to 7.00
Cc1cc([C@@H](C)Nc2cccnc2C(=O)O)c2oc(-c3ccc4nn(C)cc4c3)cc(=O)c2c1 [Example 226] | 6.30 to 7.00

Using the record for Cc1cc([C@@H](C)Nc2ccc(Cl)nc2C(=O)O)c2oc(-c3cc4cccnc4[nH]3)c(C)c(=O)c2c1 [Example 247] , state its measured pIC50.
> 7.30

Using the record for Cc1cc(C(C)Nc2ccccc2C(=O)O)c2oc(-c3cnn4ccccc34)cc(=O)c2c1 (single isomer, unassigned) [Example 125] , state its measured pIC50.
> 7.30

Using the record for Cc1cc([C@@H](C)Nc2ccccc2C(=O)O)c2oc(-c3cc4cnccc4s3)c(C)c(=O)c2c1 [Example 203] , state its measured pIC50.
> 7.30

Using the record for Cc1cc(C(C)Nc2ccccc2C(=O)O)c2oc(-c3ccc4c(c3)OC(F)(F)O4)cc(=O)c2c1 (single isomer, unassigned) [Example 64] , state its measured pIC50.
> 7.30

Using the record for Cc1cc(C(C)Nc2ccc(Cl)nc2C(=O)O)c2oc(-c3ccc4cnn(C)c4c3)cc(=O)c2c1 (single isomer, unassigned) [Example 219] , state its measured pIC50.
< 6.30
